# System: NCI-H226 lung
# Test details: NCI tumour cell line growth inhibition, 48 h; in the data active = GI50 below about 0.43 µM; inactive = the rest
Outcomes: 1 (yes) (active), 0 (no) (inactive)

- Molecule: "C#CCOc1ccc2ncnc(Nc3ccc(NC(=O)CCl)cc3)c2c1"
  Assigned label: "0 (no)"
- Molecule: "C[C@H]1CCC/C=C/[C@@H]2C[C@H](O)C[C@H]2[C@H](O)[C@@H](S(=O)CCN)CC(=O)O1 (stereo partly specified)"
  Assigned label: "1 (yes)"
- Molecule: "Cc1c2ncccc2nc2[nH]c3ccc(OCCN(C)C)cc3c12"
  Assigned label: "0 (no)"
- Molecule: "O=C1C(Cl)=C(Nc2cccc(C(F)(F)F)c2)C(=O)N1Cc1ccccc1Cl"
  Assigned label: "1 (yes)"
- Molecule: "Oc1ccc(/C=N/Nc2nc3ccccc3s2)c(O)c1"
  Assigned label: "0 (no)"
- Molecule: "COc1ccc(C2C(c3ccccc3)C(=O)N2c2cc(OC)c(OC)c(OC)c2)cc1I (stereo unspecified)"
  Assigned label: "0 (no)"
